Biological target: T1, small-ET-1 (endothelin-1) (human)
T1 construct: 21 amino acid peptide, same for mouse and human; also called human small-ET-1; EDN-1
T1 peptide: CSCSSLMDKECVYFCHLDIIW
Assay: SPR (Biacore T200), 37 C, mAb capture, peptide analyte

>  <binder>
H4H6492N2 (antibody, V domains shown, Human IgG4 Fc (prefix H4H)) VH: EVQLVESGGGLVKPGGSLRVSCVASGFTFSNAWMTWVRQTPGKGLEWVGRIKSRTDGGTVDYVAPVKGRFTISRDDSKNTLYLQMNSLKAEDTAVYYCRADLDYWGQGTLVTVSS VL: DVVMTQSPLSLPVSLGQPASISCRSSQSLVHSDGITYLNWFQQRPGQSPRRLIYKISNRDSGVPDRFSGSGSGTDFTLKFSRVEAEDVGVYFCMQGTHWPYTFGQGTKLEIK

>  <binding result>
no binding

$$$$
>  <binder>
H4H6329P (antibody, V domains shown, Human IgG4 Fc (prefix H4H)) VH: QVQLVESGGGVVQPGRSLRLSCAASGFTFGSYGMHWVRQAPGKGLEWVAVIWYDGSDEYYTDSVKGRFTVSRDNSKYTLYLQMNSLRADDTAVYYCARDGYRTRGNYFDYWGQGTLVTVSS VL: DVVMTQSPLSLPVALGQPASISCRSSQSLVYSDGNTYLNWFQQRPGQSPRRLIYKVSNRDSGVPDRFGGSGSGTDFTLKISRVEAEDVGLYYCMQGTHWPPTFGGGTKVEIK

>  <binding result>
no binding

$$$$
>  <binder>
H1M6494N (antibody, V domains shown, Hybridoma antibody, human variable domains, mouse constant domains; prefix H1M marks the Fc region (isotype not spelled out)) VH: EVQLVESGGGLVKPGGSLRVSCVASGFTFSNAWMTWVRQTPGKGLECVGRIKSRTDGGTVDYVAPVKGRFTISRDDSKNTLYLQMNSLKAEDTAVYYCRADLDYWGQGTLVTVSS VL: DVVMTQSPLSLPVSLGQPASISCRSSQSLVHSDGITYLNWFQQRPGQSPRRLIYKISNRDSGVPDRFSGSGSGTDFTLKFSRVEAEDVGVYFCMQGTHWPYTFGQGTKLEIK

>  <binding result>
no binding

$$$$
